# EXPERIMENTAL_SYSTEM: PI3Kδ (Homo sapiens, UniProt O00329)
# Construct: Full length p110 subunits of PI3k α, β and δ; polyHis (N); made in house; host or cells: Sf9 insect cells (baculovirus)
# Sequence (O00329 whole entry): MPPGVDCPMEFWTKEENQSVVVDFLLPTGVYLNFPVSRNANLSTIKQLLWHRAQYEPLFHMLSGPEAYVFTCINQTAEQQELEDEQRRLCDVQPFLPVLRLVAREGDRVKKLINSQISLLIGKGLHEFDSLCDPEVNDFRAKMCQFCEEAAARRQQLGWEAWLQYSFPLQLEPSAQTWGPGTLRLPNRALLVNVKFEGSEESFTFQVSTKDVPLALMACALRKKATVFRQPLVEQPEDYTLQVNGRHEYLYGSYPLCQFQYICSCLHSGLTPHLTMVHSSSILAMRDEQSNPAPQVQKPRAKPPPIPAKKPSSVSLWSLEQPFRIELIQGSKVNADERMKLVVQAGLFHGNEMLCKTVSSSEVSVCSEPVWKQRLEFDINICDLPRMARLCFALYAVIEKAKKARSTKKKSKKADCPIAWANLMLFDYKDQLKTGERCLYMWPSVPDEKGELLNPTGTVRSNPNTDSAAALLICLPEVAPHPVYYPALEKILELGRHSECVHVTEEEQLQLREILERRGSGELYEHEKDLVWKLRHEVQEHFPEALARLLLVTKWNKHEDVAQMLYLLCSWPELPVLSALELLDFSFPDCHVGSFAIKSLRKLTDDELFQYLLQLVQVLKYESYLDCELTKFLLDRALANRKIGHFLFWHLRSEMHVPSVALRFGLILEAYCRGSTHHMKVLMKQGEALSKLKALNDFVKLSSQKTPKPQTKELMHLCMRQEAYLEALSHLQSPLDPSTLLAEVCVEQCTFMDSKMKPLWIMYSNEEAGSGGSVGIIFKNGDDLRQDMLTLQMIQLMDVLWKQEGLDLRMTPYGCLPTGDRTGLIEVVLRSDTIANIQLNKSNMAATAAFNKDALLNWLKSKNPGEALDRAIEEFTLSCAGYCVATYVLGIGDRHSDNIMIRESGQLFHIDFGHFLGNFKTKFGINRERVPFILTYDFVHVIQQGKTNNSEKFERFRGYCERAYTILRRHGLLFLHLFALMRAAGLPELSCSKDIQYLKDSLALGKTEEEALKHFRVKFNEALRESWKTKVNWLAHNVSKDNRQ
# Sequence (P27986 whole entry partner): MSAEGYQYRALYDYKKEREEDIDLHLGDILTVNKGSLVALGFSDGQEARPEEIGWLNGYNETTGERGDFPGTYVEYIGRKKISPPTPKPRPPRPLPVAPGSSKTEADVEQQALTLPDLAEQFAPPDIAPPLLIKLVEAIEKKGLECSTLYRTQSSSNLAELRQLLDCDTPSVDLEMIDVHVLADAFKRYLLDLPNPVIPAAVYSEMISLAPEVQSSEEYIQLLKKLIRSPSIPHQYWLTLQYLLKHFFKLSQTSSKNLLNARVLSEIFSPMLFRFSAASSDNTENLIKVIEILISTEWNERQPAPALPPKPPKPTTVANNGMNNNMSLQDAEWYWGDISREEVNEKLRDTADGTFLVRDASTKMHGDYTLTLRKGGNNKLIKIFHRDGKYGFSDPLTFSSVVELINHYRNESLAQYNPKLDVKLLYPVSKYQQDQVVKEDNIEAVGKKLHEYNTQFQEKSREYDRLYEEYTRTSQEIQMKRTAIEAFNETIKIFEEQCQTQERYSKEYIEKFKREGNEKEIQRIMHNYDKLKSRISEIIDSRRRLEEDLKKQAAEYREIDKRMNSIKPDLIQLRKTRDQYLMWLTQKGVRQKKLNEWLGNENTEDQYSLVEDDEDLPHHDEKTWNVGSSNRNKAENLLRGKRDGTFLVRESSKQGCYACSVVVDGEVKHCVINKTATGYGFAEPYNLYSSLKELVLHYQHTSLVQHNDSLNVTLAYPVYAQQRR
# ASSAY_REMARKS: In vitro enzyme assay, residual ATP bioluminescence
# Type: biochemical
# DETAILS: table after the in vitro enzyme assays; isoform and unit inferred; read-out: IC50
VALUE_KIND: IC50

| COMPOUND | RESULT |
| --- | --- |
| NC(=O)c1cc(NS(=O)(=O)c2cc3cccc(Cl)c3nc2-c2ccccc2Cl)ccn1 [Example 7] | > 40 µM |

###

Quick reference: pIC50 of the listed items.
# EXPERIMENTAL_SYSTEM: PI3Kδ (Homo sapiens, UniProt O00329)
# Construct: Full length p110 subunits of PI3k α, β and δ; polyHis (N); made in house; host or cells: Sf9 insect cells (baculovirus)
# ASSAY_REMARKS: In vitro enzyme assay, residual ATP bioluminescence
# Assay type: biochemical
# DETAILS: read-out: PI3Kδ IC50
pIC50: −log10 of the molar value.
VALUE_KIND: pIC50

| MOLECULE | NUMBER |
| --- | --- |
| Cc1cccc2cc(CNc3nc(N)ncc3Cl)c(-c3ccccc3Cl)nc12 [Example 1] | 6.78 |
| Nc1cc(NCc2cc3cccc(Cl)c3nc2-c2ccccc2Cl)ncn1 [Example 2] | 5.16 |
| Cc1cccc2cc(CNc3nc(N)ncc3C(F)(F)F)c(-c3ccccc3Cl)nc12 [Example 3] | 6.90 |
| Cc1cccc2cc(CNc3ncc(C(F)(F)F)c(N)n3)c(-c3ccccc3Cl)nc12 [Example 4] | 5.55 |
